Parameter: IC50. Scope: all listed entries.
Target: human TRPC6 (Homo sapiens)
Sequence (Q9Y210 whole entry): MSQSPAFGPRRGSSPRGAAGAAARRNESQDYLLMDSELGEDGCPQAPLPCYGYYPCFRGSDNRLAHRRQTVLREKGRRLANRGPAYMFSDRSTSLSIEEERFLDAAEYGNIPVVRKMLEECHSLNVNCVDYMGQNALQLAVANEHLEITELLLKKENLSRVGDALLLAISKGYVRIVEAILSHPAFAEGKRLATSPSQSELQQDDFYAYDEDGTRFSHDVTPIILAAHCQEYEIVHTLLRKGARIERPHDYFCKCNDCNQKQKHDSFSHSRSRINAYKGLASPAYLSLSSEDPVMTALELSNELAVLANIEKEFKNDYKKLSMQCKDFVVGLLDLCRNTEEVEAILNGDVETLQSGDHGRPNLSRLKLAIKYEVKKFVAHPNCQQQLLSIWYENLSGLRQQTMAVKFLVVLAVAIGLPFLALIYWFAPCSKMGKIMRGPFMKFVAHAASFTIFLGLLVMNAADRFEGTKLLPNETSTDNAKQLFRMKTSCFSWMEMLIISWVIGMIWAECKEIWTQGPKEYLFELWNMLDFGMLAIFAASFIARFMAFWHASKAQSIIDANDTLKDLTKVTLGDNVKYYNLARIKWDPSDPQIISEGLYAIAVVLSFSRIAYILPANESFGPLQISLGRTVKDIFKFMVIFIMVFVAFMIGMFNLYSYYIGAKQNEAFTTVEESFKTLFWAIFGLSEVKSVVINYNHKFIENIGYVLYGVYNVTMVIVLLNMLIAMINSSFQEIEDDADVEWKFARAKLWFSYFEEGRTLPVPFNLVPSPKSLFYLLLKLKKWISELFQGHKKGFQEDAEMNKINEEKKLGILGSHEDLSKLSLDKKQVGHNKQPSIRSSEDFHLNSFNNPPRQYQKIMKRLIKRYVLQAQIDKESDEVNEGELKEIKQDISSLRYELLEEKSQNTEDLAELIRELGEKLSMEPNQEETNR
Assay: TRPC6 calcium flux assay (FLIPR, OAG-stimulated calcium influx)
Settings: HEK293 cells stably transfected with human TRPC6, read-out: hTRPC6 Potency
Where a name gives a salt, the structure may show the parent alone.
Value Kind: IC50

| Molecule | Result Value |
| --- | --- |
| COc1cnc(Cn2c(N3CC[C@@H](F)[C@H](N)C3)nc3cc(C#N)ccc32)nc1 [Example 241, hydrochloride] | > 3750 nM |
| N#Cc1ccc(Cn2c(N3CCC[C@H](N)C3)nc3c(Cl)cccc32)nc1 | 1.99 nM |
| N[C@@H]1CN(c2nc3cc(F)c(F)cc3n2CC(=O)N2CCNC(=O)C2)CC[C@H]1F | > 3750 nM |
| CN(C)C(=O)Cn1c(N2CC[C@H](F)[C@H](N)C2)nc2ccc(Cl)cc21 | 28.9 nM |
| COC(=O)C1CCN(C(=O)Cn2c(N3CC[C@@H](F)[C@H](N)C3)nc3cc(F)c(F)cc32)CC1 | 162 nM |
| C[C@H](c1ccc(C#N)cc1)n1c(N2CC[C@H](F)[C@H](N)C2)nc2ccccc21 [Example 317, hydrochloride] | 1360 nM |
| CC(C)(C)OC1CN(C(=O)Cn2c(N3CC[C@@H](F)[C@H](N)C3)nc3cc(F)c(F)cc32)C1 | > 1750 nM |
| CN[C@H]1CCCN(c2nc3ccccc3n2Cc2ccc(Cl)cn2)C1 | 73.9 nM |
| NC(=O)C1CCCCN1C(=O)Cn1c(N2CC[C@@H](F)[C@H](N)C2)nc2cc(F)c(F)cc21 (stereo partly drawn) | 757 nM |
| N[C@@H]1CN(c2nc3cc(F)c(F)cc3n2[C@H]2CCN(C3CCOCC3)C2=O)CC[C@H]1F | 382 nM |
| N#Cc1ccc(Cn2c(N3CC[C@@H](F)[C@H](N)C3)nc3c(C(F)(F)F)cccc32)nc1 | 68 nM |
| N[C@@H]1CN(c2nc3cc(F)ccc3n2Cc2nc(C(F)(F)F)no2)CC[C@H]1F | 546 nM |
| N[C@@H]1CN(c2nc3ccc(F)cc3n2Cc2ncc(Cl)cn2)CC[C@H]1O [Example 205] | 3 nM |
| N[C@@H]1CN(c2nc3cc(F)c(F)cc3n2CC(=O)N2CCCC(C(F)(F)F)C2)CC[C@H]1F (mixture of isomers) | 39.3 nM |
| CN(C(=O)Cn1c(N2CC[C@@H](F)[C@H](N)C2)nc2cc(F)c(F)cc21)C1CCOC1 (stereo partly drawn) | 22.4 nM |
